# Target system: T1, CD70 (UniProt P32970 39-193, limits assumed)
# T1 construct: also called CD70 (100 nM)
# T1 sequence (looked up): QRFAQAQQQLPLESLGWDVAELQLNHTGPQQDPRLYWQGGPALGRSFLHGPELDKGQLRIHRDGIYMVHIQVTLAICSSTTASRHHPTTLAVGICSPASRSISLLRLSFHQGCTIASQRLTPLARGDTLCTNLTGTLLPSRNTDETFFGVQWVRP
# Assay summary: Octet (BLI); hybridoma mAb, CD70 at 100 nM
Measured metric: Response

{"Binder": "15F8 (15F8D8) (antibody, V domains shown, IgG in hybridoma supernatant; also called 15F8D9) VH: EVQLVESGGGVVRPGGSLRLSCAASGFTFDDYGVSWVRQAPGRGLEWVSGINWNGGSTAYADSVKGRFTISRDSAKNSLYLQMDSLRAEDTALYYCAREEGSYYVWYFDIWGRGTLVTVSS VL: DIQMTQSPSSLSASVGDRVTITCRPSQSISNYLNWYQQKPGKAPKVLIYASFILQSGVPSRFGGSGSGTDFTLTISSLQPEDFATYYCQQSYSNPFTFGPGTKVDIK", "Result": 0.382}
{"Binder": "13G6 (antibody, V domains shown, IgG in hybridoma supernatant; also called 13G6E8) VH: QVQLVESGGGVVQPGKSLRLSCAASGFTFSNYGIHWVRQAPGKGLEWVAVIWYDGSYKYYADSVKGRFTISRDNSKNTLYLQMNSLRAEDTALYYCARDTVDTYGSFDYWGQGTLVTVSS VL: DIQLTQSPSFLSASVGDRVTITGRASQGISSYLAWYQQKPGKAPNLLIYAASTLQSGVPSRFSGSGSGTEFTLTISSLQPEDFATYYCQQHNRYPITFGQGTRLEIK", "Result": 0.409}
{"Binder": "9A1 (9A1H6) (antibody, V domains shown, IgG in hybridoma supernatant) VH: QVQLVQSGAEVKKPGASVKVSCKASGYSFTGYYMHWVRQAPGQGLEWMGWINPKSGGTSYAQQFQGRVTMTRDTSMSTVYMELTRLRADDTAVYYCARLYYSGWYGDYWGQGTLVTVSS VL: DIQMTQSPSSLSASVGDRVTITCQASQDINNYLNWYQQKPGKVPNLLIYDASNLETGVPSRFSGSGSGTDFTFTISSLQPEDIATYYCQQYNNPPITFGQGTRLEIK", "Result": 0.434}
